Known IC50 of a selection of molecules
Molecular target: liver carnitine palmitoyl transferase 1 (L-CPT1) (Homo sapiens, UniProt P50416)
Sequence (P50416 1-773): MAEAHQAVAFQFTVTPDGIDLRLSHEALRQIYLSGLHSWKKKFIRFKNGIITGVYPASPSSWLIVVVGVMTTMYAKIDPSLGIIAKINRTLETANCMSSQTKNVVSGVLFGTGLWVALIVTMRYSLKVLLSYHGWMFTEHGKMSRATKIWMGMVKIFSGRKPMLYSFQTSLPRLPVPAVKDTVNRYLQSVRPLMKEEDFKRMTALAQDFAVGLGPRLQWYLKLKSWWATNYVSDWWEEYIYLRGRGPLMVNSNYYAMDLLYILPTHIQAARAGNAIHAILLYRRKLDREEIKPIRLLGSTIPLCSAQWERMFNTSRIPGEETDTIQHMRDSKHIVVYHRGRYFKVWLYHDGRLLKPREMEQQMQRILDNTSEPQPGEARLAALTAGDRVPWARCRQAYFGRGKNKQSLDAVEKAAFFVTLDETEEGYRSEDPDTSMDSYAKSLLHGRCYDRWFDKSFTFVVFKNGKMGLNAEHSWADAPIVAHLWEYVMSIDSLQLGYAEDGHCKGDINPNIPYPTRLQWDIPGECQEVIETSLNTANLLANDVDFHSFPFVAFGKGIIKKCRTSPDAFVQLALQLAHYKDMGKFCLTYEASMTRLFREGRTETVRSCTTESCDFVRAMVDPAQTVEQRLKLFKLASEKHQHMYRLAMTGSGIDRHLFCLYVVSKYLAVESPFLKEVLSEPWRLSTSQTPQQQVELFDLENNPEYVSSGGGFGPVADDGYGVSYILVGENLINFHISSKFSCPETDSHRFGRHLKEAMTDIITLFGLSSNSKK
Assay: L-CPT1 inhibition, spectrophotometric CPT activity assay with DTNB (Ellman's reagent)
Conditions: human liver CPT1 expressed in P. pastoris, cell extracts; carnitine 500 μM, palmitoyl-CoA 80 μM, DTNB 300 μM, pH 7.4
Method: The following tests were carried out in order to determine the activity of the compounds of the present invention. Background information on the performed assays can be found in: Jackson et al., 1999, Biochem. J. 341, 483-489 and Jackson et al., 2000, J. Biol. Chem. 275, 19560-19566. […] CPT activity was measured using a spectrophotometric assay using 5,5′-dithio-bis-(2-nitrobenzoic acid) (DTNB) also called Ellman's reagent. […]
// note: answer is a bare numeric in nM

Any idea what its IC50 is? The molecule is COC(=O)c1ccc(-c2nc([C@H]3CCCCN3C(=O)COc3ccccc3)cs2)cc1 [Example 36]
365

Next:
Any idea what its IC50 is? The molecule is O=C(COc1ccccc1)N1CCCC[C@@H]1c1csc(-c2ccc(C(F)(F)F)cn2)n1 [Example 28]
935

Any idea what its IC50 is? The molecule is O=C(COc1ccccc1)N1CCCC[C@@H]1c1nc(-c2cccnc2)cs1 [Example 8]
25

###

Target: liver carnitine palmitoyl transferase 1 (L-CPT1) (Homo sapiens)
Sequence (P50416 1-773): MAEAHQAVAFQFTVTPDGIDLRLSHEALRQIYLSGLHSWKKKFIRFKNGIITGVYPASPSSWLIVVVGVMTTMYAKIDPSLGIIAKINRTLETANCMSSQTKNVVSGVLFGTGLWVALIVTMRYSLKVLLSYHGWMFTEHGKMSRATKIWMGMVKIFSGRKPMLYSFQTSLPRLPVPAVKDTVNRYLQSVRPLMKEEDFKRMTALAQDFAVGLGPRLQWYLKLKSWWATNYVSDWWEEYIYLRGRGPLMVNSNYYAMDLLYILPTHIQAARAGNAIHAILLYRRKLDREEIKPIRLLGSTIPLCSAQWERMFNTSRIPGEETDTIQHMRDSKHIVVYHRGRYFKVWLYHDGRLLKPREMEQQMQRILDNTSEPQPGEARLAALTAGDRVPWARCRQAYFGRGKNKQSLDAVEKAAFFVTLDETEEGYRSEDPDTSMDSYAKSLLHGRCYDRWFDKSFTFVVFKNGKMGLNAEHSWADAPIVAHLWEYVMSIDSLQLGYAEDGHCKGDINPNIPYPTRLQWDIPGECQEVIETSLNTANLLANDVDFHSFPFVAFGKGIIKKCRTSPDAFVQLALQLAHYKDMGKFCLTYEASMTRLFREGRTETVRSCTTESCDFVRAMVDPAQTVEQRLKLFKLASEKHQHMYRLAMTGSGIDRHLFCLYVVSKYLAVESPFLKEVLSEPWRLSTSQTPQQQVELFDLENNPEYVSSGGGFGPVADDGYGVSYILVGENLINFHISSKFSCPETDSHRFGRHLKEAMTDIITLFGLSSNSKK
Assay: L-CPT1 inhibition, spectrophotometric CPT activity assay with DTNB (Ellman's reagent)
Settings: human liver CPT1 expressed in P. pastoris, cell extracts; carnitine 500 μM, palmitoyl-CoA 80 μM, DTNB 300 μM, pH 7.4
Entries get a class label from measured IC50. See ranges: bottom bin (below 80 nM), middle bin (80 nM to below 200 nM), top bin (200 nM or more)

Answered examples (5):
Hi, small favor: classify O=C(COc1ccccc1)N1CCCC[C@@H]1c1csc(-c2ccncc2)n1 by its IC50 when you get a moment.
middle bin

Hi, small favor: classify O=C(COc1ccccc1)N1CCCC[C@@H]1c1csc(Cc2ccc(Cl)cc2)n1 by its IC50 when you get a moment.
top bin

Hi, small favor: classify O=C(COc1ccccc1)N1CCCC[C@@H]1c1csc(-c2ccc(F)cc2)n1 by its IC50 when you get a moment.
middle bin

Hi, small favor: classify O=C(COc1ccccc1)N1CCCC[C@@H]1c1nc(-c2ccccn2)cs1 by its IC50 when you get a moment.
bottom bin

Hi, small favor: classify N#Cc1ccc(-c2csc([C@H]3CCCCN3C(=O)COc3ccccc3)n2)cc1 by its IC50 when you get a moment.
bottom bin

Next:
Hi, small favor: classify COC(=O)c1cccc(-c2nc([C@H]3CCCCN3C(=O)COc3ccccc3)sc2C)c1 by its IC50 when you get a moment.
top bin

Hi, small favor: classify Cc1sc([C@H]2CCCCN2C(=O)COc2ccccc2)nc1-c1cccc(C(=O)O)c1 by its IC50 when you get a moment.
middle bin

Hi, small favor: classify O=C(COc1ccccc1)N1CCCC[C@@H]1c1nc(-c2ccc(Cl)nc2)cs1 by its IC50 when you get a moment.
middle bin

Hi, small favor: classify O=C(COc1ccccc1)N1CCCC[C@@H]1c1nc(-c2ccccc2)cs1 by its IC50 when you get a moment.
top bin
